- ASSAYED SYSTEM: M4
- METHOD: ELISA on coated antigen, column M4
RECORDED METRIC: absorbance at 490 nm
Please reply with the number alone, leaving off any unit.

PDL1-27F8 (antibody, V domains shown, Only FR/CDR pieces are tied to the clone) VH: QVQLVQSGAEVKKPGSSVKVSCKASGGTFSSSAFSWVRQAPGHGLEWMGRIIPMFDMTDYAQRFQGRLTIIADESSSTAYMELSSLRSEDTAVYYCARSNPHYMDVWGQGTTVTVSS VL: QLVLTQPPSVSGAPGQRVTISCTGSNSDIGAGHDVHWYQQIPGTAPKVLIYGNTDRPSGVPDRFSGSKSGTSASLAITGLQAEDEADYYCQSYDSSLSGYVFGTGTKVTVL | 0.4

Noted for PDL1-22B10 (antibody, V domains shown, Only FR/CDR pieces are tied to the clone) VH: QVQLVQSGAEVKKPGSSVKVSCRASGGTFSSYAISWVRQAPGQGLEWMGRIIPILGIANYAQKFQGRVTITADKSTSTAYMELSSLRSEDTAVYYCARDFVLSGSATVFDPWGQGTLVTVSS VL: QFVLTQPPSVSGAPGQRVTISCTGSSTNIGAGYDVHWYQQLPGKAPKVVIYGNSNRPSGVLDRFSASKSATSASLAITGLQAEDEADYYCQSYDSSLSGYVFGTGTKVTVL : its absorbance at 490 nm reads 0.4

Noted for PDL1-23E5 (antibody, V domains shown, Only FR/CDR pieces are tied to the clone) VH: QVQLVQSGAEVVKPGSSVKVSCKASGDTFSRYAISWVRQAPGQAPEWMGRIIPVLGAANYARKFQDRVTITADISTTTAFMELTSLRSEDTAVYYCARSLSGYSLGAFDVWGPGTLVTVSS VL: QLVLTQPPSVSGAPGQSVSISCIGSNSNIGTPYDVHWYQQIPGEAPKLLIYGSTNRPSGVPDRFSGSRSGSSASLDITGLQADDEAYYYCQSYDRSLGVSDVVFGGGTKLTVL : its absorbance at 490 nm reads 0.5
